Species on record: Rattus norvegicus
Assay: Open TG-GATES - Regimen: Single
Format: toxicity, organism-based, Sprague-Dawley
Set-up: regimen Single, gender Male, age 6 weeks
Settings: in vivo, po, 0 mg/kg, 24 h, tissue Blood, route gavage, dose level Control
TEST READOUT: Lym (%)
Respond with the bare value in %.

MOLECULE: CCOc1ccc(NC(C)=O)cc1
TEST READOUT: Lym
DISPLAY UNIT: %
RECORDED MEASUREMENT: 82.4

MOLECULE: COC(=O)C1=C(C)NC(C)=C(C(=O)OC)C1c1ccccc1[N+](=O)[O-]
TEST READOUT: Lym
DISPLAY UNIT: %
RECORDED MEASUREMENT: 73.2

MOLECULE: CN(C)CCC(c1ccc(Cl)cc1)c1ccccn1 (stereo not drawn)
TEST READOUT: Lym
DISPLAY UNIT: %
RECORDED MEASUREMENT: 80.6

MOLECULE: Brc1ccccc1
TEST READOUT: Lym
DISPLAY UNIT: %
RECORDED MEASUREMENT: 74.6

query: Write down Lym measured for item CCCc1cc(=O)[nH]c(=S)[nH]1
result: 76.6

query: Write down Lym measured for item Nc1c2c(nc3ccccc13)CCCC2
result: 83

query: Write down Lym measured for item O=C(OC[C@H]1O[C@@H](OC(=O)c2cc(O)c(O)c(OC(=O)c3cc(O)c(O)c(O)c3)c2)[C@H](OC(=O)c2cc(O)c(O)c(OC(=O)c3cc(O)c(O)c(O)c3)c2)[C@@H](OC(=O)c2cc(O)c(O)c(OC(=O)c3cc(O)c(O)c(O)c3)c2)[C@@H]1OC(=O)c1cc(O)c(O)c(OC(=O)c2cc(O)c(O)c(O)c2)c1)c1cc(O)c(O)c(OC(=O)c2cc(O)c(O)c(O)c2)c1
result: 79.6

query: Write down Lym measured for item CS(=O)(=O)O.Cc1ccc(NC(=O)c2ccc(CN3CCN(C)CC3)cc2)cc1Nc1nccc(-c2cccnc2)n1 [IMATINIB MESYLATE]
result: 81.4

====

Species: Rattus norvegicus
Test: Open TG-GATES - Regimen: Single
Type: toxicity, organism-based, Sprague-Dawley
Parameters: regimen Single, gender Male, age 6 weeks
Details: in vivo, po, 300 mg/kg, 24 h, tissue Plasma, route gavage, dose level Middle
TEST READOUT: Na (meq/L)
Respond with the bare value in meq/L.

TEST SMILES: O=C(OC[C@H]1O[C@@H](OC(=O)c2cc(O)c(O)c(OC(=O)c3cc(O)c(O)c(O)c3)c2)[C@H](OC(=O)c2cc(O)c(O)c(OC(=O)c3cc(O)c(O)c(O)c3)c2)[C@@H](OC(=O)c2cc(O)c(O)c(OC(=O)c3cc(O)c(O)c(O)c3)c2)[C@@H]1OC(=O)c1cc(O)c(O)c(OC(=O)c2cc(O)c(O)c(O)c2)c1)c1cc(O)c(O)c(OC(=O)c2cc(O)c(O)c(O)c2)c1
Na [meq/L]: 138.8

Here's the next entry for you.
query: Write down Na measured for item Cc1nnc2n1-c1ccc(Cl)cc1C(c1ccccc1Cl)=NC2
result: 140.8

====

Species: Rattus norvegicus
Assay: Open TG-GATES - Regimen: Single
Assay type: toxicity, organism-based, Sprague-Dawley
Parameters: regimen Single, gender Male, age 6 weeks
Details: in vivo, po, 1000 mg/kg, 6 h, tissue Kidney, route gavage, dose level High
TEST READOUT: KIDNEY_TOTAL (g)
Respond with the bare value in g.

COMPOUND: O=C(OC[C@H]1O[C@@H](OC(=O)c2cc(O)c(O)c(OC(=O)c3cc(O)c(O)c(O)c3)c2)[C@H](OC(=O)c2cc(O)c(O)c(OC(=O)c3cc(O)c(O)c(O)c3)c2)[C@@H](OC(=O)c2cc(O)c(O)c(OC(=O)c3cc(O)c(O)c(O)c3)c2)[C@@H]1OC(=O)c1cc(O)c(O)c(OC(=O)c2cc(O)c(O)c(O)c2)c1)c1cc(O)c(O)c(OC(=O)c2cc(O)c(O)c(O)c2)c1 [TANNIC ACID]
KIDNEY_TOTAL, g: 1.8
//
COMPOUND: Cc1nnc2n1-c1ccc(Cl)cc1C(c1ccccc1Cl)=NC2 [TRIAZOLAM]
KIDNEY_TOTAL, g: 1.8
//
COMPOUND: COC(=O)C1=C(C)NC(C)=C(C(=O)OC)C1c1ccccc1[N+](=O)[O-] [NIFEDIPINE]
KIDNEY_TOTAL, g: 1.9
//
COMPOUND: CNC(=C[N+](=O)[O-])NCCSCc1ccc(CN(C)C)o1 [RANITIDINE]
KIDNEY_TOTAL, g: 1.9

query: Write down KIDNEY_TOTAL measured for item CN/C(=N/CCSCc1nc[nH]c1C)NC#N [CIMETIDINE]
result: 2

====

Species on record: Rattus norvegicus
Assay: Open TG-GATES - Regimen: Daily Repeat
Assay type: toxicity, organism-based, Sprague-Dawley
Parameters: regimen Daily Repeat, gender Male, age 6 weeks
Details: in vivo, po, 300 mg/kg, […], tissue Blood, route gavage, dose level Middle, time 7 day
The following molecules are listed with their measured Mono values.
Respond with the bare value in %.

TEST SMILES: CN/C(=N/CCSCc1nc[nH]c1C)NC#N
RECORDED MEASUREMENT: 2.6
//
TEST SMILES: CCOc1ccc(NC(C)=O)cc1
RECORDED MEASUREMENT: 2.8
//
TEST SMILES: CNC(=C[N+](=O)[O-])NCCSCc1ccc(CN(C)C)o1
RECORDED MEASUREMENT: 1.6

query: Write down Mono measured for item O=C(OC[C@H]1O[C@@H](OC(=O)c2cc(O)c(O)c(OC(=O)c3cc(O)c(O)c(O)c3)c2)[C@H](OC(=O)c2cc(O)c(O)c(OC(=O)c3cc(O)c(O)c(O)c3)c2)[C@@H](OC(=O)c2cc(O)c(O)c(OC(=O)c3cc(O)c(O)c(O)c3)c2)[C@@H]1OC(=O)c1cc(O)c(O)c(OC(=O)c2cc(O)c(O)c(O)c2)c1)c1cc(O)c(O)c(OC(=O)c2cc(O)c(O)c(O)c2)c1
result: 4.8

query: Write down Mono measured for item COC(=O)C1=C(C)NC(C)=C(C(=O)OC)C1c1ccccc1[N+](=O)[O-]
result: 3

query: Write down Mono measured for item Cc1nnc2n1-c1ccc(Cl)cc1C(c1ccccc1Cl)=NC2
result: 3.4

====

The following compounds are listed with their measured KIDNEY_L values.
Species on record: Rattus norvegicus
Experiment: Open TG-GATES - Regimen: Daily Repeat
Format: toxicity, organism-based, Sprague-Dawley
Design: regimen Daily Repeat, gender Male, age 6 weeks
Conditions: in vivo, po, 300 mg/kg, 72 h, tissue Kidney, route gavage, dose level Middle, time 3 day
Respond with the bare value in g.

Below, 4 compounds whose answers are already recorded.
COMPOUND: CNC(=C[N+](=O)[O-])NCCSCc1ccc(CN(C)C)o1 [RANITIDINE]
KIDNEY_L, g: 1
--
COMPOUND: COC(=O)C1=C(C)NC(C)=C(C(=O)OC)C1c1ccccc1[N+](=O)[O-] [NIFEDIPINE]
KIDNEY_L, g: 0.9
--
COMPOUND: O=C(OC[C@H]1O[C@@H](OC(=O)c2cc(O)c(O)c(OC(=O)c3cc(O)c(O)c(O)c3)c2)[C@H](OC(=O)c2cc(O)c(O)c(OC(=O)c3cc(O)c(O)c(O)c3)c2)[C@@H](OC(=O)c2cc(O)c(O)c(OC(=O)c3cc(O)c(O)c(O)c3)c2)[C@@H]1OC(=O)c1cc(O)c(O)c(OC(=O)c2cc(O)c(O)c(O)c2)c1)c1cc(O)c(O)c(OC(=O)c2cc(O)c(O)c(O)c2)c1 [TANNIC ACID]
KIDNEY_L, g: 1
--
COMPOUND: CCOc1ccc(NC(C)=O)cc1 [PHENACETIN]
KIDNEY_L, g: 1

query: Write down KIDNEY_L measured for item CN/C(=N/CCSCc1nc[nH]c1C)NC#N [CIMETIDINE]
result: 1

query: Write down KIDNEY_L measured for item Cc1nnc2n1-c1ccc(Cl)cc1C(c1ccccc1Cl)=NC2 [TRIAZOLAM]
result: 1

====

Species: Rattus norvegicus
Experiment: Open TG-GATES - Regimen: Daily Repeat
Type: toxicity, organism-based, Sprague-Dawley
Parameters: regimen Daily Repeat, gender Male, age 6 weeks
Settings: in vivo, po, 100 mg/kg, […], tissue Plasma, route gavage, dose level Low, time 14 day
The following compounds are listed with their measured TC values.
Param answer (str): number followed by unit.

Below, 2 compounds whose answers are already recorded.
TEST SMILES: CCOc1ccc(NC(C)=O)cc1
RECORDED MEASUREMENT: 73.8 mg/dL
--
TEST SMILES: Cc1nnc2n1-c1ccc(Cl)cc1C(c1ccccc1Cl)=NC2
RECORDED MEASUREMENT: 75 mg/dL

query: Write down TC measured for item O=C(OC[C@H]1O[C@@H](OC(=O)c2cc(O)c(O)c(OC(=O)c3cc(O)c(O)c(O)c3)c2)[C@H](OC(=O)c2cc(O)c(O)c(OC(=O)c3cc(O)c(O)c(O)c3)c2)[C@@H](OC(=O)c2cc(O)c(O)c(OC(=O)c3cc(O)c(O)c(O)c3)c2)[C@@H]1OC(=O)c1cc(O)c(O)c(OC(=O)c2cc(O)c(O)c(O)c2)c1)c1cc(O)c(O)c(OC(=O)c2cc(O)c(O)c(O)c2)c1
result: 69.5 mg/dL

query: Write down TC measured for item CNC(=C[N+](=O)[O-])NCCSCc1ccc(CN(C)C)o1
result: 75.6 mg/dL

query: Write down TC measured for item CN/C(=N/CCSCc1nc[nH]c1C)NC#N
result: 62.8 mg/dL

query: Write down TC measured for item COC(=O)C1=C(C)NC(C)=C(C(=O)OC)C1c1ccccc1[N+](=O)[O-]
result: 73.6 mg/dL
